// values below are reported inhibition
test system: Human rhinovirus sp.; test: Inhibition of recombinant N-terminal His-tagged HRV 3C protease expressed in Escherichia coli at 10 uM preincubated for 15 mins followed by LEVLFQGPSK substrate addition after 45 mins by reverse-phase HPLC analysis relative to control
Write it as a number; the unit % goes unstated.

Which inhibition is reported for this compound? "Cc1cccc(CN2CCN(C(=O)[C@H]3OC(C)(C)O[C@@H]3C(=O)Nc3nc4ccccc4s3)CC2)c1"
34.3

// inhibition lookup, key: "CC1(C)O[C@H](C(=O)Nc2nc3ccccc3s2)[C@@H](C(=O)N2CCN(c3ccccc3C#N)CC2)O1"
48.1

Name the recorded inhibition for "CC1(C)O[C@@H](C(=O)Nc2nc3ccccc3s2)[C@H](C(=O)N2CCN(c3ccccn3)CC2)O1" .
64.4

Next compound, inhibition to be filled in.
Quick one: inhibition for "CC1(C)O[C@H](C(=O)Nc2nc3ccccc3s2)[C@@H](C(=O)N2CCN(c3ccccc3)CC2)O1" ?
17.5
